# assayedSystem: human V1a receptor (Homo sapiens, UniProt P37288)
# Construct: host or cells: CHO cells (hV1a cell line)
# Sequence (P37288 whole entry): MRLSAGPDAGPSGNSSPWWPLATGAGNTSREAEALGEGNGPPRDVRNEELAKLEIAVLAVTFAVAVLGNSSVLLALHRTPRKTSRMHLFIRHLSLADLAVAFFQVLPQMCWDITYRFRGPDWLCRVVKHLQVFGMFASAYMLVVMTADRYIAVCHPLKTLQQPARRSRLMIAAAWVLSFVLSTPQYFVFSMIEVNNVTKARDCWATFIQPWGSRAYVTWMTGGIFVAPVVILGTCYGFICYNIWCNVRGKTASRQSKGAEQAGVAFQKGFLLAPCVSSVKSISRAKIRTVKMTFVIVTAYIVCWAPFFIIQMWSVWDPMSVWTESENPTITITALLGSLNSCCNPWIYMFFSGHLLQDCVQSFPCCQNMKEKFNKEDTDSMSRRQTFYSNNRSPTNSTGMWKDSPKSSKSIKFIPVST
# assayDetails: Human vasopressin V1a receptor binding assay (3H-AVP competition, hV1a CHO cells)
# measurementConditions: 3H-AVP competition, CHO cells expressing human V1a; read-out: V1a Ki
attributeMeasured: log10(Ki) (log10 of the value in nM)

| compound | readoutValue |
| --- | --- |
| O=C(C(COCc1ccccc1)N1C(=O)C(N2C(=O)OCC2c2ccccc2)C1C=Cc1ccccc1)N1CCC(N2CCCCC2)CC1 (centres unmarked) | -0.08 |
| CCN1CCN(C(=O)CC[C@@H](C(=O)NC2(c3ccccc3)CCCC2)N2C(=O)[C@@H](N3C(=O)OC[C@@H]3c3ccccc3)[C@H]2/C=C/c2ccccc2)CC1 | 0.60 |
| O=C(NCc1cccc(C(F)(F)F)c1)C(CC(=O)N1CCC(CN2CCCCC2)CC1)N1C(=O)C(N2C(=O)OCC2c2ccccc2)C1C=Cc1ccccc1 (centres unmarked) [Example 134G] | 0.57 |
| CCCCN1CCN(C(=O)CCC(C(=O)NCc2cccc(C(F)(F)F)c2)N2C(=O)C(N3C(=O)OCC3c3ccccc3)C2C(Br)=Cc2ccccc2)CC1 (centres unmarked) [Example 230L] | 0.89 |
| CC(NC(=O)C(CC(=O)N1CCC(CN2CCCCC2)CC1)N1C(=O)C(N2C(=O)OCC2c2ccccc2)C1C=Cc1ccccc1)c1ccccc1 (centres unmarked) | -0.21 |
| O=C(N[C@@H]1CCCc2ccccc21)[C@H](CCC(=O)N1CCN(C2CCCCC2)CC1)N1C(=O)[C@@H](N2C(=O)OC[C@@H]2c2ccccc2)[C@H]1/C=C/c1cccc(Cl)c1 | -0.52 |
| CC(C)N1CCN(C(=O)CCC(C(=O)NCc2cccc(C(F)(F)F)c2)N2C(=O)C(N3C(=O)OCC3c3ccccc3)C2C=Cc2ccccc2)CC1 (centres unmarked) | 1.11 |
| CC(C)(NC(=O)C(CC(=O)N1CCC(N2CCCCC2)CC1)N1C(=O)C(N2C(=O)OCC2c2ccccc2)C1C=Cc1ccccc1)c1ccccc1 (centres unmarked) [Example 134J] | 0.51 |
| O=C(NCc1ccccc1F)C(CC(=O)N1CCC(N2CCCCC2)CC1)N1C(=O)C(N2C(=O)OCC2c2ccccc2)C1C=Cc1ccccc1 (centres unmarked) | 0.48 |
| O=C(NCc1cccc(C(F)(F)F)c1)C(CCC(=O)N1CCC(N2CCCCC2)CC1)N1C(=O)C(N2C(=O)OCC2c2ccccc2)C1C=Cc1ccccc1 (single isomer, unassigned) | 0.16 |
| O=C(NCc1cccc(C(F)(F)F)c1)C(CCC(=O)N1CCN(CCc2ccccc2)CC1)N1C(=O)C(N2C(=O)OCC2c2ccccc2)C1C=Cc1ccccc1 (centres unmarked) | 1.52 |
